The reported numbers originate from ChEMBL document CHEMBL4304757.

Target: Alpha glucosidase (Homo sapiens, UniProt O43451+P10253+P14410+Q2M2H8)
Assay: Inhibition of alpha-glucosidase (unknown origin)
Type: protein assay
readout: IC50

Cn1cc(-c2nnc(-c3ccc(C(c4c[nH]c5ccccc45)c4c[nH]c5ccccc45)cc3)o2)c2ccccc21 20 to 292 µM
Cc1ccc([C@H](CC(=O)c2ccc3ccccc3c2)c2c[nH]c3ccccc23)cc1 4.3 to 43 µM
Cc1[nH]c2ccccc2c1-c1nnc(-c2ccc(C(c3c[nH]c4ccc(Br)cc34)c3c[nH]c4ccc(Br)cc34)cc2)o1 20 to 292 µM
O=C(C[C@@H](c1ccccc1)c1c[nH]c2ccccc12)c1ccccc1 4.3 to 43 µM
Cc1[nH]c2ccccc2c1-c1nnc(-c2ccc(C(c3c[nH]c4ccccc34)c3c[nH]c4ccccc34)cc2)o1 20 to 292 µM
Cc1ccccc1NC(=O)Cn1cc(Cn2c(-c3ccc(Br)cc3)nc(-c3ccccc3)c2-c2ccccc2)nn1 15 to 48 µM
Cc1ccccc1NC(=O)Cn1cc(Cn2c(-c3cccc(F)c3)nc(-c3ccccc3)c2-c2ccccc2)nn1 15 to 48 µM
CCn1c2ccccc2c2cc(NC(=O)CSc3nc4ccccc4[nH]3)ccc21 0.17 µM
O=C(C[C@@H](c1ccc(Cl)cc1Cl)c1c[nH]c2ccccc12)c1ccccc1 4.3 to 43 µM
O=C1NC(=O)/C(=C/c2ccc(-c3nc4ccccc4n3Cc3ccc(Cl)cc3)cc2)S1 0.54 µM
O=C1Nc2cc(Br)ccc2/C1=N/NC(=O)c1ccccc1O 2.2 to 83 µM
Cc1c(C(c2ccc(-c3nnc(-c4cn(C)c5ccccc45)o3)cc2)c2c(C)n(C)c3ccccc23)c2ccccc2n1C 20 to 292 µM
O=C(C[C@@H](c1ccc(Br)cc1)c1c[nH]c2ccccc12)c1ccccc1 4.3 to 43 µM
O=C(C[C@@H](c1ccccc1)c1c[nH]c2ccccc12)c1ccc2ccccc2c1 4.3 to 43 µM
